Tested on: Candida albicans
Experiment: Antifungal activity against Candida albicans by XTT assay
Format: functional, organism-based
ENDPOINT NAME: IC50 (µg/mL)
One number for each entry, in µg/mL.

COc1c(O)c2c(c(C)c1C(=O)C=C(C)C)Oc1c(C=O)c(O)cc(C)c1C(=O)O2 49.9
C[C@@H]1[C@H](O)[C@@H](C)/C=C/C=C/C=C/C=C/C=C/C=C/C=C/[C@H](O[C@@H]2O[C@H](C)[C@@H](O)[C@H](N)[C@@H]2O)C[C@@H]2O[C@](O)(C[C@@H](O)C[C@@H](O)[C@H](O)CC[C@@H](O)C[C@@H](O)CC(=O)O[C@H]1C)C[C@H](O)[C@H]2C(=O)O 0.034
COc1c(O)c2c(c(C)c1C(=O)C=C(C)C)Oc1c(C=O)c(O)c(Cl)c(C)c1C(=O)O2 39.7

Query compound follows.
input: IC50 lookup needed for CC(C)=CC(=O)c1c(O)cc2c(c1C)OC(=O)c1c(C)cc(O)c(C=O)c1O2 , thanks.
output: 1.2

* * *

Experiment: Cytotoxicity against human KKU-M214 cells by MTT assay
Assay type: functional, cell-based
ENDPOINT NAME: IC50 (µg/mL)
One number for each entry, in µg/mL.

Use the examples below as a reference point.
COc1c(O)c2c(c(C)c1C(=O)C=C(C)C)Oc1c(C=O)c(O)c(Cl)c(C)c1C(=O)O2 7.81
COc1cc2c(c(C)c1C(=O)C=C(C)C)OC(=O)c1c(C)cc(O)c(C=O)c1O2 4.51

Please go through the list and note IC50 for each compound.
1. CC(C)=CC(=O)c1c(O)cc2c(c1C)OC(=O)c1c(C)cc(O)c(C=O)c1O2
2. Cc1cc(O)c(C=O)c2c1C(=O)Oc1c(cc3c(c1C)C(=O)CC(C)(C)O3)O2

output:
[4.92, 4.5]

* * *

Test: Cytotoxicity against human KKU-M214 cells by MTT assay
Type: functional, cell-based
ENDPOINT NAME: IC50

Examples from the recorded data:
Cc1c2c(c(O)c3c1C(=O)CC(C)(C)O3)OC(=O)c1c(C)c(Cl)c(O)c(C=O)c1O2 4.4 µg/mL
Cc1cc(O)c(C=O)c2c1C(=O)Oc1c(O)c3c(c(C)c1O2)C(=O)CC(C)(C)O3 5.05 µg/mL
Cc1c2ccncc2c(C)c2c1[nH]c1ccccc12 0.21 µg/mL

Okay, now this compound:
input: Any idea what IC50 was measured for COc1c(O)c2c(c(C)c1C(=O)C=C(C)C)Oc1c(C=O)c(O)cc(C)c1C(=O)O2 ?
output: 3.35 µg/mL

* * *

System: Plasmodium falciparum
Experiment: Antimalarial activity against multi drug-resistant Plasmodium falciparum K1 assessed as [3H]hypoxanthine uptake after 18 hrs by microculture radioisotope technique
Assay type: functional, organism-based
Kindly supply the reported log10 IC50 values for the records listed here.
Please interpret these as log10 of IC50 where IC50 is in µg/mL.

COMPOUND	log10 IC50
C[C@@H]1CC[C@H]2[C@@H](C)C(=O)O[C@@H]3O[C@@]4(C)CC[C@@H]1[C@]32OO4 [ARTEMISININ]	-3.00
COc1c(O)c2c(c(C)c1C(=O)C=C(C)C)Oc1c(C=O)c(O)cc(C)c1C(=O)O2 [MOLLICELLIN C]	0.96
Cc1c2c(cc3c1C(=O)CC(C)(C)O3)Oc1c(C=O)c(O)c(Cl)c(C)c1C(=O)O2 [MOLLICELLIN M]	0.46
CC(C)=CC(=O)c1c(O)cc2c(c1C)OC(=O)c1c(C)cc(O)c(C=O)c1O2 [MOLLICELLINE K]	0.08
Cc1cc(O)c(C=O)c2c1C(=O)Oc1c(cc3c(c1C)C(=O)CC(C)(C)O3)O2 [MOLLICELLIN B]	0.67
COc1cc2c(c(C)c1C(=O)C=C(C)C)OC(=O)c1c(C)cc(O)c(C=O)c1O2 [MOLLICELLIN L]	0.53

// each listed compound needs a value for log10 IC50
1. COc1c(O)c2c(c(C)c1C(=O)C=C(C)C)Oc1c(C=O)c(O)c(Cl)c(C)c1C(=O)O2 [MOLLICELLIN E]
2. CC(C)=CCc1c(O)cc2c(c1C)OC(=O)c1c(C)c(Cl)c(O)c(C=O)c1O2 [MOLLICELLIN J]

output:
[0.51, 0.69]
